- target.entity: Cannabinoid receptor 2 (Homo sapiens)
- Sequence (P34972 whole entry): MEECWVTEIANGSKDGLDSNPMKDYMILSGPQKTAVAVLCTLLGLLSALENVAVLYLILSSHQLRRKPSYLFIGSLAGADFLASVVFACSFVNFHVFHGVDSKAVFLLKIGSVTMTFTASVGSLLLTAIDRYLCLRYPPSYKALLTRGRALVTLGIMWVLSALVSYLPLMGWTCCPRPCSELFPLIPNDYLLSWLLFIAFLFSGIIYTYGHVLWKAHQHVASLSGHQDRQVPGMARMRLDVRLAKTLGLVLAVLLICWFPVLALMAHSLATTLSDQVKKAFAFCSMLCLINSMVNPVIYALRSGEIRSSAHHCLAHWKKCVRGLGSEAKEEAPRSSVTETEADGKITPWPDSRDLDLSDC
- protocol.details: Displacement of [3H]CP-55,940 from human CB2 receptor expressed in HEK293 cell membranes in absence of FAAH inhibitor PMSF by radioligand binding assay
quantity.measured: Ki (nM)

# smiles.representation, target.entity, quantity.measured, measure.unit, comparator, reported.result
rows = [
    ("CCCCC/C=C\\[C@@H](C)/C=C\\C/C=C\\C/C=C\\CCCC(=O)NCCO", "Cannabinoid receptor 2 (Homo sapiens)", "Ki", "nM", ">", 1000),
    ("CCCCC/C=C\\C/C=C\\[C@@H](C)/C=C\\C/C=C\\CCCC(=O)NCCO", "Cannabinoid receptor 2 (Homo sapiens)", "Ki", "nM", ">", 1000),
    ("C[C@H](/C=C\\C/C=C\\C/C=C\\CCCC(=O)NC1CC1)/C=C\\CCCCCN=[N+]=[N-]", "Cannabinoid receptor 2 (Homo sapiens)", "Ki", "nM", "=", 8.5),
    ("CCCCC/C=C\\C/C=C\\[C@H](C)/C=C\\C/C=C\\CCCC(=O)NCCO", "Cannabinoid receptor 2 (Homo sapiens)", "Ki", "nM", ">", 1000),
    ("CCCCC/C=C\\C/C=C\\C/C=C\\[C@H](C)/C=C\\CCCC(=O)N[C@H](C)CO", "Cannabinoid receptor 2 (Homo sapiens)", "Ki", "nM", "=", 12.8),
    ("C[C@H](/C=C\\C/C=C\\C/C=C\\CCCC(=O)N[C@H](C)CO)/C=C\\CCCOc1ccccc1", "Cannabinoid receptor 2 (Homo sapiens)", "Ki", "nM", "=", 286),
]
